# System: L. crispatus YH2
# assay.summary: Antibiotic disk diffusion assay
# Format: cell-based, Lactobacillus crispatus
# cond: L. crispatus YH2, MRS agar
List of diameter of inhibition zone values.
Numbers only; they are read as mm.

Solved cases below.
CC1(C)S[C@@H]2[C@H](NC(=O)[C@H](N)c3ccccc3)C(=O)N2[C@H]1C(=O)O; 0
CC1(C)S[C@@H]2[C@H](NC(=O)C(C(=O)O)c3ccccc3)C(=O)N2[C@H]1C(=O)O (stereo partly shown); 35
CO/N=C(\C(=O)N[C@@H]1C(=O)N2C(C(=O)O)=C(COC(C)=O)CS[C@H]12)c1csc(N)n1; 0
CC1(C)S[C@@H]2[C@H](NC(=O)Cc3ccccc3)C(=O)N2[C@H]1C(=O)O; 0
C[C@@H](O)[C@H]1C(=O)N2C(C(=O)O)=C(SCCN=CN)C[C@H]12; 25
Cc1onc(-c2ccccc2)c1C(=O)N[C@@H]1C(=O)N2[C@@H]1SC(C)(C)[C@@H]2C(=O)O; 0

# input for lookup
-- ask Which diameter of inhibition zone value belongs to `CN[C@H](CC(C)C)C(=O)N[C@H]1C(=O)N[C@@H](CC(N)=O)C(=O)N[C@H]2C(=O)N[C@H]3C(=O)N[C@H](C(=O)N[C@H](C(=O)O)c4cc(O)cc(O)c4-c4cc3ccc4O)[C@H](O)c3ccc(c(Cl)c3)Oc3cc2cc(c3O[C@@H]2O[C@H](CO)[C@@H](O)[C@H](O)[C@H]2O[C@H]2C[C@](C)(N)[C@H](O)[C@H](C)O2)Oc2ccc(cc2Cl)[C@H]1O` ?
-- reply 35

---

# Tested on: S. denitrificans YH1
# assay.summary: Antibiotic disk diffusion assay
# Format: cell-based
# cond: S. denitrificans YH1, MRS agar
List of diameter of inhibition zone values.
Numbers only; they are read as mm.

CN[C@H](CC(C)C)C(=O)N[C@H]1C(=O)N[C@@H](CC(N)=O)C(=O)N[C@H]2C(=O)N[C@H]3C(=O)N[C@H](C(=O)N[C@H](C(=O)O)c4cc(O)cc(O)c4-c4cc3ccc4O)[C@H](O)c3ccc(c(Cl)c3)Oc3cc2cc(c3O[C@@H]2O[C@H](CO)[C@@H](O)[C@H](O)[C@H]2O[C@H]2C[C@](C)(N)[C@H](O)[C@H](C)O2)Oc2ccc(cc2Cl)[C@H]1O; 35
Cc1onc(-c2ccccc2)c1C(=O)N[C@@H]1C(=O)N2[C@@H]1SC(C)(C)[C@@H]2C(=O)O; 0
CC1(C)S[C@@H]2[C@H](NC(=O)[C@H](N)c3ccccc3)C(=O)N2[C@H]1C(=O)O; 0
CC1(C)S[C@@H]2[C@H](NC(=O)Cc3ccccc3)C(=O)N2[C@H]1C(=O)O; 0
CO/N=C(\C(=O)N[C@@H]1C(=O)N2C(C(=O)O)=C(COC(C)=O)CS[C@H]12)c1csc(N)n1; 0

-- ask Which diameter of inhibition zone value belongs to `C[C@@H](O)[C@H]1C(=O)N2C(C(=O)O)=C(SCCN=CN)C[C@H]12` ?
-- reply 30

-- ask Which diameter of inhibition zone value belongs to CC1(C)S[C@@H]2[C@H](NC(=O)C(C(=O)O)c3ccccc3)C(=O)N2[C@H]1C(=O)O (stereo partly shown) ?
-- reply 35
